TEST: Stability assays in rat liver microsomes
Assay type: in vitro ADME
ASSAY CONTEXT: pH 7.4, Metabolic stability (% remaining), percent of parent compound remaining after 30-min incubation
ENDPOINT LABEL: remaining at 0.5 h, 10 μM

[[record]]
compound = "O=C(Nc1ccc(F)cc1)N[C@H](Cc1c[nH]c2ccccc12)C(=O)NCC1(c2ccccc2)CC1 [(R)-8]"
endpoint_label = "remaining at 0.5 h, 10 μM"
test_value = "4%"

[[record]]
compound = "N#Cc1ccc(C[C@@H](NC(=O)Nc2ccc(F)cc2)C(=O)NCC2(c3ccc(F)c(Cl)c3)CC2)cc1 [(R)-17]"
endpoint_label = "remaining at 0.5 h, 10 μM"
test_value = "> 20%"

[[record]]
compound = "Cc1ccc(C2(CNC(=O)[C@@H](Cc3ccc(C#N)cc3)NC(=O)Nc3ccc(F)cc3)CC2)cc1F [(R)-15]"
endpoint_label = "remaining at 0.5 h, 10 μM"
test_value = "> 20%"


Now examine the next entry.
Name the recorded remaining at 0.5 h, 10 μM of the item N#Cc1ccc(C[C@H](NC(=O)Nc2ccc(F)cc2)C(=O)NCC2(c3ccc(F)c(Cl)c3)CC2)cc1 [(S)-17] in your answer.
> 20%

###

SUBJECT OF TEST: h-FPR2 (Homo sapiens, UniProt P25090)
Sequence (P25090 1-351): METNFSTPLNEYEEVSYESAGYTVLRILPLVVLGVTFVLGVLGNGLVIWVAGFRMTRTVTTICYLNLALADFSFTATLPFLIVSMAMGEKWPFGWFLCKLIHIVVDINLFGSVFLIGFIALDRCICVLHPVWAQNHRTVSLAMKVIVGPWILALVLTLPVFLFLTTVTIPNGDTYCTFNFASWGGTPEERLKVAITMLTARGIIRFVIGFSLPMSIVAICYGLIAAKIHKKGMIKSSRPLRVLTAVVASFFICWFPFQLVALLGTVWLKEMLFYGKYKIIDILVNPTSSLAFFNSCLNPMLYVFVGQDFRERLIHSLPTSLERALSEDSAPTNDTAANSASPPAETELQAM
TEST: Ca2+ mobilization in FPR2-HL60 transfected cells
Type: cell-based
ASSAY CONTEXT: Ca2+ mobilization
ENDPOINT LABEL: Agonist character (full/partial) at FPR2

Use these answered entries as a reference point.
[[record]]
compound = "O=C(Nc1ccc([N+](=O)[O-])cc1)N[C@@H](Cc1cccnc1)C(=O)NCC1(c2ccccc2)CC1 [(S)-11]"
subject_of_test = "h-FPR2 (Homo sapiens, UniProt P25090)"
test_value = "partial agonists"

[[record]]
compound = "O=C(Nc1ccc(F)cc1)N[C@@H](Cc1c[nH]c2ccccc12)C(=O)NCC1(c2ccccc2)CC1 [(S)-8]"
subject_of_test = "h-FPR2 (Homo sapiens, UniProt P25090)"
test_value = "partial agonists"

[[record]]
compound = "N#Cc1ccc(C[C@H](NC(=O)Nc2ccc([N+](=O)[O-])cc2)C(=O)NCC2(c3ccccc3)CC2)cc1 [(S)-10]"
subject_of_test = "h-FPR2 (Homo sapiens, UniProt P25090)"
test_value = "full agonists"

[[record]]
compound = "O=C(Nc1ccccc1)N[C@@H](Cc1c[nH]c2ccccc12)C(=O)NCC1(c2ccccc2)CC1 [(S)-9]"
subject_of_test = "h-FPR2 (Homo sapiens, UniProt P25090)"
test_value = "partial agonists"

[[record]]
compound = "N#Cc1ccc(C[C@@H](NC(=O)Nc2ccc([N+](=O)[O-])cc2)C(=O)NCC2(c3ccccc3)CC2)cc1 [(R)-10]"
subject_of_test = "h-FPR2 (Homo sapiens, UniProt P25090)"
test_value = "full agonists"


Next:
Entry O=C(Nc1ccc([N+](=O)[O-])cc1)N[C@H](Cc1cccnc1)C(=O)NCC1(c2ccccc2)CC1 [(R)-11] needs its Agonist character (full/partial) at FPR2 filled in; supply it.
partial agonists
